src = PubChem BioAssay (NCATS)

# System: CP203
# assayRemarks: qHTS profiling for inhibitors of Plasmodium falciparum proliferation (AID 504749); also: nearly all actives have a fitted effect of over 60% in size
# recordedConditions: P. falciparum in erythrocytes, SYBR Green DNA, 72 h; series mostly up to 28.7 µM
Records with an inconclusive call do not appear. The source made the active and inactive calls. Calls follow the shape of the dose curve; as a rule, active = well fitted inhibition curve with a large enough effect; inconclusive = small, poorly fitted or top-dose-only effect; inactive = flat fitted curve, though single readings scatter.
Return exactly one item of active, inactive

Query: Check the results log: what was the call for OCC(O)C(O)C(O)C(O)CO (centres undefined) ?
Result: inactive

Query: How about this compound: O=C(O)C(O)c1ccccc1 (centres undefined)
Result: inactive

Query: Repeat for the following compound: COc1cc([C@H]2c3cc4c(cc3[C@@H](O[C@H]3O[C@H]5CO[C@@H](C)O[C@H]5[C@@H](O)[C@@H]3O)[C@@H]3COC(=O)[C@H]23)OCO4)cc(OC)c1O
Result: inactive

Query: Would you mind doing CC[C@]1([C@H]2O[C@@H]([C@@H]3O[C@](O)(CO)[C@@H](C)C[C@H]3C)C[C@H]2C)CC[C@@H]([C@]2(C)CC[C@@]3(C[C@@H](O)[C@@H](C)[C@@H]([C@H](C)[C@H](OC)[C@H](C)C(=O)O)O3)O2)O1 as well?
Result: active

Query: Same lookup for CCN(CC)C(=O)Nc1ccc(OC[C@H](O)CNC(C)(C)C)c(C(C)=O)c1 , please.
Result: inactive

Query: C[n+]1c2cc(N)ccc2cc2ccc(N)cc21 ?
Result: active

Query: What about O=C1NC(=O)C2C3C=CC(C3)C12 (centres undefined) ?
Result: inactive

Query: Entry to check: COC(=O)C1C2CC3c4[nH]c5cc(OC)ccc5c4CCN3CC2CC(OC)C1OC (centres undefined)
Result: inactive

Query: Another: CC(=O)OCC(=O)[C@@]1(O)CCC2C3CCC4=CC(=O)C=CC4(C)C3C(O)C[C@]21C (some centres undefined)
Result: inactive

----------
# Test system: PAD
# assayRemarks: qHTS profiling for inhibitors of Plasmodium falciparum proliferation (AID 504749); also: nearly all actives have a fitted effect of over 60% in size
# recordedConditions: P. falciparum in erythrocytes, SYBR Green DNA, 72 h; series mostly up to 28.7 µM
Inconclusive results are not listed. The source made the active and inactive calls. Calls follow the shape of the dose curve; as a rule, active = well fitted inhibition curve with a large enough effect; inconclusive = small, poorly fitted or top-dose-only effect; inactive = flat fitted curve, though single readings scatter.
Pick one: active, inactive

Query: Test call for this compound, please: OC[C@@H](O)C(O[C@@H]1O[C@@H](CO)[C@H](O)[C@H](O)[C@H]1O)[C@H](O)[C@@H](O)CO (stereo partly drawn)
Result: inactive

Query: # iterate: C=C1N[C@]2(C(=O)COC(C)=O)[C@@H](C[C@H]3[C@@H]4CCC5=CC(=O)C=C[C@]5(C)[C@H]4[C@@H](O)C[C@@]32C)O1
Result: inactive

Query: What would you report for CC[C@@]1(O)CC2CN(CCc3c([nH]c4ccccc34)[C@](C(=O)OC)(c3cc4c(cc3OC)N(C)C3[C@@](O)(C(=O)OC)C(OC(C)=O)[C@]5(CC)C=CCN6CC[C@@]43C65)C2)C1 (stereo partly drawn) ?
Result: active

----------
# assayRemarks: AP1 Signaling Pathway (AID 357);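 also: ME-180 reporter cells stimulated with EGF at its EC50 level; % is scaled to controls: 0 for no effect and ±100 for the full control effect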
# recordedConditions: ME-180 (cervical carcinoma) AP-1-bla reporter, EGF-induced, beta-lactamase ratio, 5 h; at 17.2 µM (top of the series) unless noted
Results filed as inconclusive are left out.
Task for the reader: assign each of the following compounds its reported activity change, negative = inhibition.
Quick note: give the figure in %, leave out the unit.

Query: Query (compound): O=C(NCc1ccco1)c1ccc(=O)oc1 ; field requested: activity change, negative = inhibition
Result: 13.8

Query: What do you have for COCCCNC(=O)c1c(N)n(/N=C/c2cccnc2)c2nc3ccccc3nc12 ?
Result: -15.5

Query: Also CCCOc1ccc(C2NC(=O)NC2=O)cc1 (stereo unspecified) , if possible.
Result: 5.97

Query: Another compound: Oc1ccccc1-c1nc(NCCN2CCOCC2)c2ccccc2n1
Result: -13.2

Query: Field entry: c1ccc(OCc2nn3c(-c4ccco4)nnc3s2)cc1
Result: 27.2

Query: Then this compound: CCN1CCc2c(C#N)c(N3CCOCC3)nc(NCc3ccccc3)c2C1
Result: 1.6

Query: Try Cc1cc2c(c(=O)n1CC1CCCO1)C(c1ccc3c(c1)OCO3)C(C#N)=C(N)O2 (stereo unspecified) next.
Result: -18.5

Query: What do we get for S=c1[nH]nc(-c2ccco2)n1C1CCCCC1 ?
Result: -7.16

Query: Field entry: COc1ccc2c(c1OC)C(=O)N1c3ccccc3C(=O)N(c3ccccc3F)C21 (stereo unspecified)
Result: -4.99

Query: Further, for NC(=O)CSc1nc(N)c2c3c(sc2n1)CCCCC3 ?
Result: -2.28

Query: Here is the next compound: CC1CCc2cc(F)cc3c(O)c(C(=O)Nc4cnccn4)c(=O)n1c23 (stereo unspecified)
Result: -8.92
